# PROTOCOL_DESCRIPTION: AUC in monkey at 1.5 mg/kg, po
# Format: ADME, organism-based, Macaca mulatta
# Set-up: dose 1.5 mg/kg, route oral
# CONDITION_DETAILS: rhesus monkey, plasma
MEASURED_QUANTITY: AUC (µM·h)
The figure you give is taken to be in µM·h; do not add the unit.

Prompt: Return reported AUC; argument: CC(C)(C)OC(=O)N[C@H](C(=O)N1C[C@H]2[C@@H]([C@H]1C(=O)NC(CC1CCC1)C(=O)C(N)=O)C2(Cl)Cl)C1CCCCC1 (stereo partly specified)
Response: 0.06

* * *

# PROTOCOL_DESCRIPTION: Half life in monkey
# Assay type: ADME, organism-based, Macaca mulatta
# CONDITION_DETAILS: rhesus monkey, in vivo
MEASURED_QUANTITY: half-life
Provide a numeric answer, followed by its unit.

Before answering, review these 2 worked examples.
COMPOUND	half-life
CC(C)(C)OC(=O)N[C@H](C(=O)N1C[C@H]2[C@@H]([C@H]1C(=O)NC(CC1CC1)C(=O)C(N)=O)C2(Cl)Cl)C1CCCCC1 (stereo partly drawn)	9.6 h
CC(C)(C)OC(=O)N[C@H](C(=O)N1C[C@H]2[C@@H]([C@H]1C(=O)NC(CC1CCC1)C(=O)C(N)=O)C2(Cl)Cl)C(C)(C)C (stereo partly drawn)	1.1 h

Now consider a different compound.
Prompt: Return reported half-life; argument: CC(C)(C)OC(=O)N[C@H](C(=O)N1C[C@H]2[C@@H]([C@H]1C(=O)NC(CC1CCC1)C(=O)C(N)=O)C2(Cl)Cl)C1CCCCC1 (stereo partly drawn)
Response: 1.9 h

* * *

# PROTOCOL_DESCRIPTION: Oral bioavailability in dog
# Format: ADME, organism-based, Canis lupus familiaris
# CONDITION_DETAILS: in vivo
MEASURED_QUANTITY: bioavailability (%)
The figure you give is taken to be in %; do not add the unit.

COMPOUND	MEASURED_QUANTITY	EXPERIMENTAL_RESULT
CC(C)(C)OC(=O)N[C@H](C(=O)N1C[C@H]2[C@@H]([C@H]1C(=O)NC(CC1CCC1)C(=O)C(N)=O)C2(Cl)Cl)C1CCCCC1 (stereo partly drawn)	bioavailability	2
CC(C)(C)OC(=O)N[C@H](C(=O)N1C[C@H]2[C@@H]([C@H]1C(=O)NC(CC1CCC1)C(=O)C(N)=O)C2(Cl)Cl)C(C)(C)C (stereo partly drawn)	bioavailability	10

Prompt: Return reported bioavailability; argument: CC(C)(C)OC(=O)N[C@H](C(=O)N1C[C@H]2[C@@H]([C@H]1C(=O)NC(CC1CC1)C(=O)C(N)=O)C2(Cl)Cl)C1CCCCC1 (stereo partly drawn)
Response: 2

* * *

# PROTOCOL_DESCRIPTION: Half life in dog
# Format: ADME, organism-based, Canis lupus familiaris
# CONDITION_DETAILS: in vivo
MEASURED_QUANTITY: half-life (h)
The figure you give is taken to be in h; do not add the unit.

Prompt: Return reported half-life; argument: CC(C)(C)OC(=O)N[C@H](C(=O)N1C[C@H]2[C@@H]([C@H]1C(=O)NC(CC1CC1)C(=O)C(N)=O)C2(Cl)Cl)C1CCCCC1 (stereo partly drawn)
Response: 16

Prompt: Return reported half-life; argument: CC(C)(C)OC(=O)N[C@H](C(=O)N1C[C@H]2[C@@H]([C@H]1C(=O)NC(CC1CCC1)C(=O)C(N)=O)C2(Cl)Cl)C(C)(C)C (stereo partly drawn)
Response: 6.3

Prompt: Return reported half-life; argument: CC(C)(C)OC(=O)N[C@H](C(=O)N1C[C@H]2[C@@H]([C@H]1C(=O)NC(CC1CCC1)C(=O)C(N)=O)C2(Cl)Cl)C1CCCCC1 (stereo partly drawn)
Response: 4.7

* * *

# PROTOCOL_DESCRIPTION: AUC in dog at 1.5 mg/kg, po
# Format: ADME, organism-based, Canis lupus familiaris
# Set-up: dose 1.5 mg/kg, route oral
# CONDITION_DETAILS: plasma
MEASURED_QUANTITY: AUC (µM·h)
The figure you give is taken to be in µM·h; do not add the unit.

Prompt: Return reported AUC; argument: CC(C)(C)OC(=O)N[C@H](C(=O)N1C[C@H]2[C@@H]([C@H]1C(=O)NC(CC1CCC1)C(=O)C(N)=O)C2(Cl)Cl)C1CCCCC1 (stereo partly specified)
Response: 0.1

* * *

# PROTOCOL_DESCRIPTION: AUC in dog at 2.2 mg/kg, iv
# Type: ADME, organism-based, Canis lupus familiaris
# Parameters: dose 2.2 mg/kg, route intravenous
# CONDITION_DETAILS: plasma
MEASURED_QUANTITY: AUC (µM·h)
The figure you give is taken to be in µM·h; do not add the unit.

COMPOUND	MEASURED_QUANTITY	EXPERIMENTAL_RESULT
CC(C)(C)OC(=O)N[C@H](C(=O)N1C[C@H]2[C@@H]([C@H]1C(=O)NC(CC1CCC1)C(=O)C(N)=O)C2(Cl)Cl)C(C)(C)C (some centres not stated)	AUC	4.5

Now consider a different compound.
Prompt: Return reported AUC; argument: CC(C)(C)OC(=O)N[C@H](C(=O)N1C[C@H]2[C@@H]([C@H]1C(=O)NC(CC1CC1)C(=O)C(N)=O)C2(Cl)Cl)C1CCCCC1 (some centres not stated)
Response: 2.6

* * *

# PROTOCOL_DESCRIPTION: Inhibition of hepatitis C virus NS3 serine protease
# Design: species or system Hepacivirus hominis
*1 amine or outer side, *2 acyl side, *3 side chain or, on linkers, in order; H or OH if unused. Where a SMILES comes first, the peptide text is derived from it. [ ]: non-standard residue; d: D form. The star is where a group is joined. Pro(3R,4S-CMe2) = CC1(C)[C@@H]2[C@@H](C(=O)O)NC[C@@H]21; X1 = O=C(C(=O)[*:2])C(CC1CC1)N[*:1]; Phg = N[C@H](C(=O)O)c1ccccc1; Tle = CC(C)(C)[C@H](N)C(=O)O; Boc = CC(C)(C)OC(=O)*
Items are presented alongside their recorded pKi.
Answer as the number alone; pKi is minus log10 of concentration in mol/L.

Prompt: Return reported pKi; argument: CN(C)C(=O)[C@@H](NC(=O)CNC(=O)C(=O)C(CC1CC1)NC(=O)[C@@H]1[C@@H]2[C@H](CN1C(=O)[C@@H](NC(=O)OC(C)(C)C)C(C)(C)C)C2(C)C)c1ccccc1 (stereo partly drawn) (Boc-[Tle][Pro(3R,4S-CMe2)][X1]G[Phg]-NMe2)
Response: 8.42

Prompt: Return reported pKi; argument: CC(C)(OC(=O)N[C@H](C(=O)N1C[C@H]2[C@@H]([C@H]1C(=O)NC(CC1CCC1)C(=O)C(N)=O)C2(Cl)Cl)C1CCCCC1)C(F)(F)F (stereo partly drawn)
Response: 7.19

Prompt: Return reported pKi; argument: C=CCNC(=O)C(=O)C(CCC)NC(=O)[C@@H]1[C@@H]2[C@H](CN1C(=O)[C@@H](NC(=O)NC(C)(C)C)C1CCCCC1)C2(Cl)Cl (stereo partly drawn)
Response: 7.00

Prompt: Return reported pKi; argument: CC(C)(C)OC(=O)N[C@H](C(=O)N1C[C@H]2[C@@H]([C@H]1C(=O)NC(CC1CC1)C(=O)C(N)=O)C2(Cl)Cl)C1CCCCC1 (stereo partly drawn)
Response: 7.96

Prompt: Return reported pKi; argument: CCCC(NC(=O)[C@@H]1[C@@H]2[C@H](CN1C(=O)[C@@H](NC(=O)NC(C)(C)C)C1CCCCC1)C2(Cl)Cl)C(=O)C(N)=O (stereo partly drawn)
Response: 7.70

* * *

# PROTOCOL_DESCRIPTION: Inhibition of hepatitis C virus NS3 serine protease
# Design: species or system Hepacivirus hominis
*1 amine or outer side, *2 acyl side, *3 side chain or, on linkers, in order; H or OH if unused. Where a SMILES comes first, the peptide text is derived from it. [ ]: non-standard residue; d: D form. The star is where a group is joined. Pro(3S,4R-CCl2) = O=C(O)[C@H]1NC[C@H]2[C@@H]1C2(Cl)Cl; X2 = O=C(C(=O)[*:2])C(CC1CCC1)N[*:1]; X1 = O=C(C(=O)[*:2])C(CC1CC1)N[*:1]; Chg = N[C@H](C(=O)O)C1CCCCC1; Phg = N[C@H](C(=O)O)c1ccccc1; Boc = CC(C)(C)OC(=O)*
Items are presented alongside their recorded Ki.
The figure you give is taken to be in nM; do not add the unit.

MOLECULE	Ki [nM]
CN(C)C(=O)[C@@H](NC(=O)CNC(=O)C(=O)C(CC1CCC1)NC(=O)[C@@H]1[C@@H]2[C@H](CN1C(=O)[C@@H](NC(=O)OC(C)(C)C)C1CCCCC1)C2(Cl)Cl)c1ccccc1 (stereo partly drawn) (Boc-[Chg][Pro(3S,4R-CCl2)][X2]G[Phg]-NMe2)	9
CC(C)(C)NC(=O)N[C@H](C(=O)N1C[C@H]2[C@@H]([C@H]1C(=O)NC(CC1CCC1)C(=O)C(N)=O)C2(Cl)Cl)C1CCCCC1 (stereo not given in full)	6
NC(=O)C(=O)C(CC1CCC1)NC(=O)[C@@H]1[C@@H]2[C@H](CN1C(=O)[C@@H](NC(=O)OC1CC3CCC1C3)C1CCCCC1)C2(Cl)Cl (stereo not given in full)	60
CC(C)(C)NC(=O)N[C@H](C(=O)N1C[C@H]2[C@@H]([C@H]1C(=O)NC(CC1CCC1)C(=O)C(N)=O)C2(Cl)Cl)C1Cc2ccccc2C1 (stereo not given in full)	30

Now consider a different molecule.
Prompt: Return reported Ki; argument: CN(C)C(=O)[C@@H](NC(=O)CNC(=O)C(=O)C(CC1CC1)NC(=O)[C@@H]1[C@@H]2[C@H](CN1C(=O)[C@@H](NC(=O)OC(C)(C)C)C1CCCCC1)C2(Cl)Cl)c1ccccc1 (stereo partly drawn) (Boc-[Chg][Pro(3S,4R-CCl2)][X1]G[Phg]-NMe2)
Response: 7
